- assayedTarget: Met (Homo sapiens)
- Sequence (P08581 25-1390): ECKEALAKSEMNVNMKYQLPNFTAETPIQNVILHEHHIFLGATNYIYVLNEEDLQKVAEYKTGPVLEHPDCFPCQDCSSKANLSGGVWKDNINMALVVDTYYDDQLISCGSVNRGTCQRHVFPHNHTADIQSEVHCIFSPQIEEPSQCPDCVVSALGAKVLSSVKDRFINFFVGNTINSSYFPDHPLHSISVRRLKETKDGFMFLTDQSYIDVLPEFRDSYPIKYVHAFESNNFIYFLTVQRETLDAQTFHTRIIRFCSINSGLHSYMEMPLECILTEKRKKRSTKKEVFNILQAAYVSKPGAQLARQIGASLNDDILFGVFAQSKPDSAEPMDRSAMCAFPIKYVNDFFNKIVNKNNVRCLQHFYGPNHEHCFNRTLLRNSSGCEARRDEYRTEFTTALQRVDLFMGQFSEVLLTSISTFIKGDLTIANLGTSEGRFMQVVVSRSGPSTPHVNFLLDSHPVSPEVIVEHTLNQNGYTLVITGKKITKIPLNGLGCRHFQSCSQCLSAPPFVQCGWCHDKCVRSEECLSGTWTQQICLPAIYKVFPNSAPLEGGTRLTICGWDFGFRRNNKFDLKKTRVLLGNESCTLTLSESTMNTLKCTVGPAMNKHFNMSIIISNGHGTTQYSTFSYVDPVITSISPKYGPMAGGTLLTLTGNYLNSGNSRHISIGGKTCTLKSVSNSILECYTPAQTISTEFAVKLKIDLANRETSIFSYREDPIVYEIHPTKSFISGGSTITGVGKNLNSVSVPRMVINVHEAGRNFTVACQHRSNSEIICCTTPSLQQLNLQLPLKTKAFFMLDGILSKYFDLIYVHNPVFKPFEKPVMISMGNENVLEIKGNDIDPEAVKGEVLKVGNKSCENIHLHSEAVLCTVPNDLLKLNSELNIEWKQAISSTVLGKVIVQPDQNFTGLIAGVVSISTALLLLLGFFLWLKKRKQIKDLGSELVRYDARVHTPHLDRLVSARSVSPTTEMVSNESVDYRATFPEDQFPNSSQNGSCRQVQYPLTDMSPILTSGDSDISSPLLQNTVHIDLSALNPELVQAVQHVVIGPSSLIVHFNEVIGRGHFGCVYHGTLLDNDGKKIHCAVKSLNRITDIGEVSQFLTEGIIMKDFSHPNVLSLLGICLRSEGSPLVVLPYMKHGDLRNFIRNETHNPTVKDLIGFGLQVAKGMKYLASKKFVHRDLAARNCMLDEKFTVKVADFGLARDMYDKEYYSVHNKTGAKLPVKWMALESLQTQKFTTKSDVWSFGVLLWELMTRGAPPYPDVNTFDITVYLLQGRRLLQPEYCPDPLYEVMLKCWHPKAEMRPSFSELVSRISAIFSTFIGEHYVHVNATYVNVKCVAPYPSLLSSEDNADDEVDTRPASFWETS
- protocolText: Met autophosphorylation ELISA in PC-3 cells
- Format: cell-based
- Design: endogenous in cells; host or cells: PC-3 prostate cancer cells (ATCC #CRL-1435)
- conditionNotes: Table 3 Cellular Activities, HGF-stimulated, phospho-Met ELISA, read-out: c-Met IC50
pIC50: −log10 of the molar value.
reportedMetric: pIC50

> print(dat)
                                querysmiles       assayedtarget  valuereported
1  COc1cc2nccc(Oc3ccc(NC(=O)c4c(C)ncc(-c5ccc(C)o5)c4O)cc3F)c2nc1OC  Met (Homo sapiens)         ≥ 7.00
2  COCc1nc(C)c(-c2cccc(C)n2)c(O)c1C(=O)Nc1ccc(Oc2ccnc3cc(OC)c(OC)nc23)c(F)c1  Met (Homo sapiens)         ≥ 7.00
3  COc1cc2nccc(Oc3ccc(NC(=O)c4cnc(C)c(-c5cc(C)cs5)c4O)cc3F)c2nc1OC  Met (Homo sapiens)         ≥ 7.00
4  COc1cnc2c(Oc3ccc(NC(=O)c4cc(C(C)=O)c(C)n(-c5ccoc5)c4=O)cc3F)ccnc2c1  Met (Homo sapiens)   6.00 to 6.52
5  COc1ccc2nccc(Oc3ccc(NC(=O)c4ccc(C)n(-c5ccc(F)cn5)c4=O)cc3F)c2n1  Met (Homo sapiens)         ≥ 7.00
6  COc1cc2nccc(Oc3ccc(NC(=O)c4c(C)n(C)c(C)c(-c5cc6ccccc6o5)c4=O)cc3F)c2nc1OC  Met (Homo sapiens)   6.00 to 6.52
7  COc1cc2nccc(Oc3ccc(NC(=O)c4c5n(c(C)c(-c6cc(C)cs6)c4=O)CCOC5)cc3)c2nc1OC  Met (Homo sapiens)   6.52 to 7.00
